- Target desc: human APJ receptor (Homo sapiens)
- Construct: expressed in transfected cells; host or cells: HEK293
- Test: Intracellular cAMP accumulation assay (APJ hcAMP, HTRF)
- Type: cell-based
- Measurement parameters: HEK293 cells stably expressing human APJ receptor; inhibition of forskolin-mediated cAMP production; read-out: APJ cAMP Potency range
Entries and their EC50

Below, 2 compounds whose answers are already recorded.
[[record]]
compound = "CCCCc1nc(O)c(Cc2ccc(-c3ncon3)cc2F)c(=O)n1-c1c(OC)cccc1OC"
endpoint = "EC50"
result = "0.01 to 10 nM"

[[record]]
compound = "CCCCc1nc(=O)c(Cc2ccc(-c3ccccc3)cc2)c(O)n1-c1c(CC)cccc1CC"
endpoint = "EC50"
result = "10 to 100 nM"


Entry "CCc1cccc(CC)c1-n1c(-c2ccn(C)n2)nc(=O)c(Cc2ccc(-c3ccc(F)cc3C(N)=O)cc2F)c1O" , human APJ receptor (Homo sapiens) data, EC50 value: 0.01 to 10 nM

Entry "CCc1cccc(CC)c1-n1c(-c2ccn(C)n2)nc(=O)c(Cc2ccc(-c3ccc(F)nc3C)c(F)c2)c1O" , human APJ receptor (Homo sapiens) data, EC50 value: 0.01 to 10 nM

Entry "CCCCc1nc(O)c(Cc2ccc(-n3cccn3)cc2)c(=O)n1-c1c(OC)cccc1OC" , human APJ receptor (Homo sapiens) data, EC50 value: 0.01 to 10 nM

Entry "CCCCc1nc(O)c(Cc2csc(-c3ccc(C)cc3)n2)c(=O)n1-c1c(OC)cccc1OC" , human APJ receptor (Homo sapiens) data, EC50 value: 10 to 100 nM

Entry "CCc1cccc(CC)c1-n1c(-c2nc(C)cs2)nc(=O)c(Cc2ccc(-c3cccn(C)c3=O)c(F)c2)c1O" , human APJ receptor (Homo sapiens) data, EC50 value: 0.01 to 10 nM

Entry "CCc1cccc(CC)c1-n1c(-c2ccn(CC(C)C)n2)nc(=O)c(Cc2ccc(-c3ccnc(F)c3C)c(F)c2)c1O" , human APJ receptor (Homo sapiens) data, EC50 value: 100 to 300 nM

Entry "CCCCc1nc(O)c(Cc2cnc(-c3ccc(Cl)cc3)s2)c(=O)n1-c1c(OC)cccc1OC" , human APJ receptor (Homo sapiens) data, EC50 value: 0.01 to 10 nM

====

- Target desc: human APJ receptor (Homo sapiens, UniProt P35414)
- Construct: expressed in transfected cells; host or cells: HEK293
- Test: Intracellular cAMP accumulation assay (APJ hcAMP, HTRF)
- Format: cell-based
- Measurement parameters: HEK293 cells stably expressing human APJ receptor; inhibition of forskolin-mediated cAMP production; read-out: APJ cAMP Potency range
Entries and their EC50

[[record]]
compound = "CCCCc1nc(=O)c(Cc2ccc(C3CC3)cc2)c(O)n1-c1c(CC)cccc1CC [Example 67]"
result = "0.01 to 10 nM"


Note: attention shifts to another entry.
Form field EC50, entry CC[C@@H](c1ccccc1)n1c(-c2nc(C)cs2)nc(=O)c(Cc2ccc(-c3cccn(C)c3=O)c(F)c2)c1O [Example 119] : 0.01 to 10 nM

====

- Target desc: human APJ receptor (Homo sapiens)
- Construct: expressed in transfected cells; host or cells: HEK293
- Sequence (P35414 1-380): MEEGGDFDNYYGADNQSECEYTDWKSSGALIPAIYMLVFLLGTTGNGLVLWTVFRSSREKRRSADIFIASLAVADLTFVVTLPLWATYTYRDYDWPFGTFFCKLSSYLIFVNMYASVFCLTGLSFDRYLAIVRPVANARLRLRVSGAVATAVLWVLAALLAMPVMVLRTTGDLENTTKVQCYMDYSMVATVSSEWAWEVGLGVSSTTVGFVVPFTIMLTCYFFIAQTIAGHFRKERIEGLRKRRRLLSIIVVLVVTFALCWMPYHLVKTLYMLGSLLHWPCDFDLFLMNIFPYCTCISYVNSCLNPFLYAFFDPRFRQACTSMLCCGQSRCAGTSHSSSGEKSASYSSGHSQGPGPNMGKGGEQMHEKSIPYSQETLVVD
- Test: Intracellular cAMP accumulation assay (APJ hcAMP, HTRF)
- Format: cell-based
- Measurement parameters: HEK293 cells stably expressing human APJ receptor; inhibition of forskolin-mediated cAMP production; read-out: Human APJ cAMP EC50 potency range
Entries and their EC50

Below, 4 molecules whose answers are already recorded.
[[record]]
molecule = "CCCCc1nc(=O)c(Cc2ccc(-c3ccc(F)nc3C)cc2)c(O)n1[C@@H](CC)c1cccc(C#N)c1"
target_desc = "human APJ receptor (Homo sapiens)"
result = "0.01 to 10 nM"

[[record]]
molecule = "CCc1cccc(CC)c1-n1c(-c2ccn(C3CC3)n2)nc(=O)c(Cc2ccc(-c3ccnc(F)c3C)c(F)c2)c1O"
target_desc = "human APJ receptor (Homo sapiens)"
result = "0.01 to 10 nM"

[[record]]
molecule = "CCOCc1nc(O)c(Cc2ccc(-n3ccccc3=O)cc2)c(=O)n1-c1c(OC)cccc1OC"
target_desc = "human APJ receptor (Homo sapiens)"
result = "100 to 300 nM"

[[record]]
molecule = "COc1cccc(OC)c1-n1c(-c2ccc(F)cc2)nc(O)c(Cc2ccc(-n3cc(F)ccc3=O)cc2)c1=O"
target_desc = "human APJ receptor (Homo sapiens)"
result = "0.01 to 10 nM"


Form field EC50, entry CCCCc1nc(=O)c(Cc2ccc(Br)cc2)c(O)n1[C@@H](CC)c1cccc(C#N)c1 [Compound 95i] : 10 to 100 nM
